Tested on: XIP peptide (Xip251-270) binding
Experiment: XIP fragment 251-270 binding compounds – biochemical, small-molecule microarray, fluorescence 635/667 nm, 0.1 µg/mL protein, primary screen (AID 1182)
Settings: fluorescent protein binding, 635 nm, higher = more signal, called active from +8 up or from −8 down
Assignment: determine reported composite z-score for the given molecules.
Keep the answer to the number alone.

So for C#Cc1cc2ccccc2oc1=O , the logged composite z-score turned out to be 0.151

# composite z-score (molecule: CCCCC(CC)C(O)C1C=CC2C(=O)N(c3ccccc3)C(=O)C2N1Nc1ccc(C#N)cc1 (configuration not stated) ) is 0.742

The molecule identified as Cc1ccc(C(C)CC(O)C2C=CC3C(=O)N(c4ccccc4)C(=O)C3N2Nc2ccccc2)o1 (configuration not stated) registered its composite z-score at 0.0436

composite z-score reading for CO[C@H]1O[C@H](CO)[C@@H](OC(=O)Nc2ccc3c(c2)OCO3)[C@H](OC(=O)Nc2ccc3c(c2)OCO3)[C@@H]1OC(=O)Nc1ccc2c(c1)OCO2 : 1.12

The molecule listed as COc1ccc(C#Cc2ccc3c(c2)[C@]2(C(=O)N3)[C@H](c3ccc(OCCO)cc3)N3[C@H](c4ccccc4)[C@H](c4ccccc4)OC(=O)[C@H]3[C@@H]2C(=O)NC[C@H](O)c2ccccc2)cc1 shows composite z-score equal to 0.47

composite z-score reported for this molecule CCC1=C2CN(Cc3ccccc3)[C@@H](C(=O)Cc3ccccc3)C2C=CCC1 (some centres not stated) : 0.932

Please fill in: composite z-score reported for CCCCCCCCCCC(O)C1C=CC2C(=O)N(c3ccccc3)C(=O)C2N1Nc1ccc(C#N)cc1 (configuration not stated) = 1.53

---

Tested on: Chordin-like protein 2 (CHRDL2)
Test: compounds binding chordin-like 2 – biochemical, small-molecule microarray, 635 nm fluorescence, primary screen (AID 1126);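 note: printed compound slides probed with Chrdl2 protein at 4 µg/mL for 1 h at 4 C; score merges 667 nm emission intensity with signal to noise over three replicate slides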
Settings: fluorescence 635 nm, higher = more signal
recorded_endpoint: composite z-score
Lab note: record the figure alone, no unit after it.

// composite z-score lookup, compound = CCC1=C2CN(Cc3ccccc3)[C@@H](C(=O)Cc3ccccc3)C2C=CCC1 (stereo not given in full) , result: -0.263

The value of composite z-score measured for the compound CCOC(=O)C[C@H]1[C@H](OC(=O)c2cc3ccccc3oc2=O)[C@@H](NC(=O)CC(C)C)c2cc(OCCCO)ccc2N1C(=O)c1ccc2ccccc2n1 turned out to be 0.324

Value of composite z-score reported for the compound CS(=O)(=O)CCOC(=O)C1=CC(CCCO)=CC(c2ccc(CN3CCCC3)cc2)N(Cc2sc3ccccc3c2Cl)C=C1C(=O)OCCS(C)(=O)=O (stereo not given) is 1.03

So, CC(C)c1ccc(NN2C(C(O)c3ccc(C#N)cc3)C=CC3C(=O)N(c4ccccc4)C(=O)C32)cc1 (stereo not given) ? Its composite z-score was 0.0494

So for COCCCNC(=O)[C@@]1(Sc2ccc(C)cc2)CC(=O)N(C2Cc3ccccc3C2)[C@@H]1c1ccc(CO)cc1 , the logged composite z-score turned out to be -1.86

---

Assay: forskolin-driven CRE-LacZ activity in PC12 – cell-based, CRE-LacZ reporter, forskolin-stimulated, primary screen (AID 1146);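 note: PC12 cells with 6xCRE LacZ reporter stimulated by forskolin 10 µM; beta-galactosidase reporter signal reflecting CREB driven transcription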
Conditions: luminescence, 4.5 h, higher = more signal, called active from +8 up or from −8 down
The threshold is inclusive: z-score of exactly 0.9 counts as t; values below receive f.

API: above_or_equal(metric=z-score, cutoff=0.9) for item C=CC[C@@H](OC(=O)Nc1ccc(SC)cc1)c1ccc(O)c(F)c1
t

// inclusive: z-score at least 0.9? input: [N-]=[N+]=Nc1ccccc1[C@@H]1OC(c2ccc(OCCCO)cc2)=N[C@]1(Cc1ccccc1)C(=O)N1CCCCC1
f

Given CC1=C2[C@@H](CCc3ccccc3)OB(O)C[C@@H]2[C@@H]2C(=O)N(C)C(=O)[C@@H]2C1 , state whether its z-score is at least 0.9.
f

z-score >= 0.9 for COc1ccc([Si](C)(C)[C@@H]2[C@@H](CC(=O)N3Cc4ccccc4C[C@H]3CO)O[C@]3(C(=O)N(Cc4ccc(N5C(=O)c6cccc7cccc5c67)cc4)c4ccccc43)[C@H]2C)cc1 ?
t

Does CCCC=C(CCC)[C@@H](NS(=O)(=O)c1ccc(C(F)(F)F)cc1)c1ccccc1 have a reported z-score of at least 0.9?
t
